Attribution: patent US12152030B2

- assay_protocol: Pharmacokinetic study in rats
- Assay type: in vivo
- stated_conditions: male, SD, plasma, po; rat, 3 mg/kg
quantity_measured: half-life
Note: a bare number is incomplete; add the unit.

Q) Value lookup for half-life; key = Cc1c2c(c(=O)n3c1C(=O)NC31CCCCC1)Nc1cc(NC(=O)C3CC3)ncc1C2 [Compound 26]
A) 6.97 h

----------
- assay_protocol: Pharmacokinetic study in rats
- Format: in vivo
- stated_conditions: male, SD, plasma, po; rat, 10 mg/kg
Structures can show the parent of a compound that is named as a salt.
quantity_measured: half-life (h)
All answers are understood in h, so give the number only.

Q) What value of measured half-life is listed for Cc1c2c(c(=O)n3c1C(=O)NC31CCCCC1)Nc1cc(N)ncc1C2 [Compound 2, hydrochloride] ?
A) 5.07

----------
- Tested on: Phosphorylated eIF4E
- assay_protocol: Intracellular peIF4E signaling assay
- Type: cell-based
- stated_conditions: 2 h; two hours incubation at 37° C.; read-out: peIF4E signaling cell assay IC50
pIC50: −log10 of the molar value.
quantity_measured: pIC50

Q) Observed pIC50 on Phosphorylated eIF4E for C=CC1(CCO)NC(=O)c2c(C)c3c(=O)c4cnc(N)cc4[nH]c3c(=O)n21 (stereo not shown) [Compound 19] , please.
A) 4.00 to 6.00

Q) Same read-out for Cc1c2n(c(=O)c3[nH]c4cc(N)ncc4c(=O)c13)C1(CCCC1)NC2=O [Compound 5] ?
A) > 7.30

Q) Would you kindly repeat that for Cc1c2n(c(=O)c3[nH]c4ccncc4c(=O)c13)C1(CCCCC1)NC2=O [Compound 15] ?
A) 6.00 to 7.30

Q) // repeat for Cc1c2n(c(=O)c3[nH]c4cc(N)ncc4c(=O)c13)C1(CCN(C)CC1)NC2=O [Compound 17] and report
A) 4.00 to 6.00

----------
- System: Phosphorylated eIF4E
- assay_protocol: Intracellular peIF4E signaling assay
- Assay type: cell-based
- stated_conditions: 2 h; two hours incubation at 37° C.; read-out: peIF4E signaling cell assay IC50
pIC50: −log10 of the molar value. Structures can show the parent of a compound that is named as a salt.
quantity_measured: pIC50

Q) Return reported pIC50; argument: Cc1c2c(c(=O)n3c1C(=O)NC3(C)c1ccccc1)Nc1cc(N)ncc1C2 (centres unmarked) [Compound 8, hydrochloride]
A) 6.00 to 7.30

Q) Could you do the same for Cc1c2n(c(=O)c3[nH]c4cc(N)ncc4c(=O)c13)C(C)(C)NC2=O , please?
A) 6.00 to 7.30

Q) Continue with Cc1c2c(c(=O)n3c1C(=O)NC31CCCCC1)Nc1cc(NC(=O)C3CC3)ncc1C2
A) > 7.30

Q) Entry to check: Cc1c2c(c(=O)n3c1C(=O)NC31CCCCC1)Nc1cc(NC(=O)C(C)C)ncc1C2
A) > 7.30

Q) Now consider Cc1c2c(c(=O)n3c1C(=O)NC31CCCCC1)Nc1ccncc1C2 [Compound 16, hydrochloride] .
A) > 7.30

Q) Try this compound next: Cc1c2c(c(=O)n3c1C(=O)NC31CCCCC1)Nc1cc(NC(=O)OC(C)(C)C)ncc1C2
A) > 7.30

Q) Entry Cc1c2c(c(=O)n3c1C(=O)NC3(C)c1cccc(F)c1)Nc1cc(N)ncc1C2 (centres unmarked) [Compound 10, hydrochloride] please
A) 6.00 to 7.30

Q) One more compound: Cc1cc2c(cn1)Cc1c(C)c3n(c(=O)c1N2)C1(CCCCC1)NC3=O [Compound 12, hydrochloride]
A) 6.00 to 7.30
